Read-out: Interleukin-8 (IL8), CXCL8 (gene 3576)
Test: BSK_SAg_IL8: BioMAP Diversity Plus: SAg Assay for Interleukin-8 (IL8) Biomarker Activity (AID 2283094)
Condition label: primary human HUVEC with PBMC; actives raise or lower the signal
Active and inactive are the calls of the source. The calls were made as follows: active = hit-call score of the fitted dose curve at least 0.9, where 1 is the maximum; inactive = score below 0.9.
Outcome field: choose from active, inactive

Incoming: Fill in: this test's call for "O=C(O)COc1nc(Cl)c(Cl)cc1Cl" is ___
Outgoing: inactive

Incoming: Further, for COC(=O)C(C)Oc1ccc(Oc2ccc(Cl)cc2Cl)cc1 (stereo not drawn) ?
Outgoing: inactive

Incoming: Further, for "CCOP(=S)(OCC)SCn1c(=O)oc2cc(Cl)ccc21" ?
Outgoing: active

Incoming: Further, for "COP(=S)(OC)Oc1nc(Cl)c(Cl)cc1Cl" ?
Outgoing: inactive

Incoming: Further, for "CCCN(CCC)c1c([N+](=O)[O-])cc(S(N)(=O)=O)cc1[N+](=O)[O-]" ?
Outgoing: active

Incoming: Further, for COP(N)(=O)SC (stereo not drawn) ?
Outgoing: inactive

Incoming: Further, for "COc1nc(NC(C)C)nc(NC(C)C)n1" ?
Outgoing: inactive

Incoming: Further, for "O=C(Nc1ccccc1)Nc1ccnc(Cl)c1" ?
Outgoing: active

Incoming: Further, for "COc1nc(C)nc(NC(=O)NS(=O)(=O)c2ccccc2Cl)n1" ?
Outgoing: inactive

Incoming: Further, for "Cc1cc(Cl)ccc1OCC(=O)O" ?
Outgoing: inactive

Incoming: Further, for "COC(=O)c1ccccc1C(=O)OC" ?
Outgoing: inactive

Incoming: Further, for CCCC1COC(Cn2cncn2)(c2ccc(Cl)cc2Cl)O1 (stereo not drawn) ?
Outgoing: inactive

Incoming: Further, for "COc1cnc(OC)n2nc(NS(=O)(=O)c3c(OCC(F)F)cccc3C(F)(F)F)nc12" ?
Outgoing: inactive

###

Read-out: Cytochrome P450 7A1 (Homo sapiens)
Test: LTEA_HepaRG_CYP7A1: Life Technologies and Expression Analysis (LTEA) Assay for Cytochrome P450 7A1 (CYP7A1) using HepaRG (AID 2283496)
Condition label: mRNA level, 48 h; actives raise or lower the signal
Active and inactive are the calls of the source. Rule for the calls: active = hit-call score of the fitted dose curve at least 0.9, where 1 is the maximum; inactive = score below 0.9.
Outcome field: choose from active, inactive

Some solved cases for reference:
C=CCC1=C(C)[C@@H](OC(=O)[C@@H]2[C@@H](C=C(C)C)C2(C)C)CC1=O	inactive
CCCC1COC(Cn2cncn2)(c2ccc(Cl)cc2Cl)O1 (stereo not drawn)	active
COC(=O)C=C(C)OP(=O)(OC)OC	active
CCOC(=O)C(Cl)Cc1cc(-n2nc(C)n(C(F)F)c2=O)c(F)cc1Cl (stereo not drawn)	inactive

Incoming: Fill in: this test's call for "O=C(Nc1ccccc1)Nc1ccnc(Cl)c1" is ___
Outgoing: active

Incoming: Further, for C=CC1(C)OC(=O)N(c2cc(Cl)cc(Cl)c2)C1=O (stereo not drawn) ?
Outgoing: inactive

Incoming: Further, for "CC1=C(C(=O)Nc2ccccc2)SCCO1" ?
Outgoing: active

Incoming: Further, for COC(=O)C(C)Oc1ccc(Oc2ccc(Cl)cc2Cl)cc1 (stereo not drawn) ?
Outgoing: inactive

###

Read-out: Human Leukocyte Antigen - DR isotype (HLADR), HLA-DRA (gene 3122)
Test: BSK_3C_HLADR: BioMAP Diversity Plus: 3C Assay for Human Leukocyte Antigen - DR isotype (HLADR) Biomarker Activity (AID 2283019);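 as to Outcome: ELISA of cell-surface HLA-DR on HUVEC 24 h after dosing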
Condition label: primary human endothelial cells (HUVEC); actives raise or lower the signal
Activity calls are given as the source filed them. The calls were made as follows: active = hit-call score of the fitted dose curve at least 0.9, where 1 is the maximum; inactive = score below 0.9.
Outcome field: choose from active, inactive

Some solved cases for reference:
CCCN(CCC)c1c([N+](=O)[O-])cc(S(N)(=O)=O)cc1[N+](=O)[O-]	active
CN(C)C(=S)SSC(=S)N(C)C	active
C=CCC1=C(C)[C@@H](OC(=O)[C@@H]2[C@@H](C=C(C)C)C2(C)C)CC1=O	active

Turning to the following compound.
Incoming: Fill in: this test's call for N#CC(CCc1ccc(Cl)cc1)(Cn1cncn1)c1ccccc1 (centres undefined) is ___
Outgoing: inactive
